system: Leishmania amazonensis recombinant arginase (L-ARG); assay: Arginase inhibition test, recombinant L-ARG (urea, Berthelot method); type: biochemical; conditions: L-ARG over B-ARG (bovine IC50 vs L. amazonensis IC50)
Assay endpoint: Selective Index
One number for each entry.

These recorded examples may help you get a feel for the data.
Data request: Reported Selective Index, molecule COC(=O)C(Cc1ccc(O)c(O)c1)NC(=O)/C=C/c1ccc(O)c(O)c1 (centres unmarked) : ____
Data returned: 10

Data request: Then this molecule: O=C(/C=C/c1ccc(O)c(O)c1)NCCc1ccc(O)c(O)c1
Data returned: 64

Data request: Then this molecule: O=C(/C=C/c1ccc(O)cc1)NCCc1ccc(O)c(O)c1
Data returned: 68

For every item below, please supply its Selective Index.
1. COc1cc(/C=C/C(=O)NCCc2ccc(O)c(O)c2)ccc1O
2. O=C(/C=C/c1ccc(O)c(O)c1)NCCc1ccccc1 [CAPA, caffeic acid phenethyl amide]
3. COc1cc(/C=C/C(=O)NCCc2ccc(O)c(O)c2)cc(OC)c1OC

Data returned:
31
1
81

For every item below, please supply its Selective Index.
1. O=C(/C=C/c1ccc(O)c(O)c1)O[C@@H]1C[C@](O)(C(=O)O)C[C@@H](O)[C@H]1O [Chlorogenic acid, reference compound]
2. O=C(O)/C=C/c1ccc(O)c(O)c1 [Caffeic acid, reference compound]

Data returned:
1. 1.3
2. 58
